For each of the molecules below, state its composite z-score.
assay: probe aNOTCH2 binding on compound microarray – biochemical, small-molecule microarray, 635/667 nm fluorescence, primary screen (AID 1121); conditions: higher = more signal;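 note: score merges feature fluorescence read at 667 nm with its signal to noise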
One number for each entry.

molecule: CC(C)[Si]1(C(C)C)O[C@@H](c2ccccc2)c2cc(-c3ccc(-c4ccc(Cl)c(Cl)c4)o3)nc(CCc3ccccc3)c21
composite z-score: -0.148

Required: composite z-score, one value per molecule below.
1. COC(=O)[C@@]1(Cc2ccc(OC)cc2)[C@H]2c3cc(C(=O)N4CCCC4)n(C[C@H](O)CO)c3C[C@H]2CN1C(=O)c1ccccc1
2. CCN(CC)c1ccc(N2CC=CC34O[C@@H]5C=CCCOC(=O)C5[C@H]3C(=O)N(CCCO)[C@@H]4C2=O)cc1 (stereo partly specified)
3. C=C(CCCC)/C(=C/C[C@H](OC(C)=O)c1ccc(CO)o1)c1cc(C(=O)OC)ccc1OC
4. CC(C)CNC(=O)[C@@]1(C)c2ccccc2C(=O)N(C(C)C)[C@H]1c1ccc(CO)cc1
5. O=S(=O)(NCCCO)c1ccc(Br)cc1

Out:
1: 0.0817; 2: -0.102; 3: -0.149; 4: -0.132; 5: -0.057

----------
molecular target: Albumin (Bos taurus); test: compounds binding labelled BSA control protein – biochemical, small-molecule microarray, Alexa647 label, 635/667 nm fluorescence, artefact control for SMM control protein annotation, profiling panel (AID 1118); details: BSA-A647 binding, fluorescence 635 nm, higher = more signal;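 note: score merges 667 nm emission intensity and signal-to-noise per printed compound spot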
Param threshold (0.8) applies to composite z-score; output Criterion met when value >= threshold, Criterion not met when value < threshold.

compound: Cc1ccc(F)cc1S(=O)(=O)N[C@@H]1CCN(Cc2ccc(C(F)(F)F)cc2)C1
labelValue: Criterion not met

In: Hi, just wondering whether COc1cc(CO)cc(I)c1O[C@H]1C=C(C(=O)NCCO)C[C@@H](N(CCc2cccc(F)c2)C(=O)CCC2CCCC2)[C@@H]1O shows composite z-score of 0.8 or higher.
Out: Criterion not met

In: Hi, just wondering whether CCN(CC)c1ccc(N2CC=CC34O[C@@H]5/C=C\CCCOC(=O)C5[C@H]3C(=O)N(CCCO)[C@@H]4C2=O)cc1 (stereo partly specified) shows composite z-score of 0.8 or higher.
Out: Criterion not met

In: Hi, just wondering whether C#C[C@H]1Oc2ccccc2S(=O)(=O)N2CCC[C@@H]12 shows composite z-score of 0.8 or higher.
Out: Criterion not met

----------
assay: binders from COS7 lysate, DM2A8 probe, primary screen, torsin A project, cell lysate, small-molecule microarray, fluorescence 635/667 (AID 1065); settings: higher = more signal, COS7 lysate expressing mutant human TOR1A
Param threshold (0.2) applies to composite z-score; output rule met when value >= threshold, rule not met when value < threshold.

In: Hi, just wondering whether [N-]=[N+]=NCc1ccccc1C[C@]1(C(=O)NCCN2CCOCC2)N=C(c2ccc(OCCCO)cc2)O[C@H]1c1ccccc1CN=[N+]=[N-] shows composite z-score of 0.2 or higher.
Out: rule not met

In: Hi, just wondering whether CCCC[C@@H]1C[C@H]1[C@@H](NC(=O)c1ccccc1)c1ccc(-c2ccccc2)cc1 shows composite z-score of 0.2 or higher.
Out: rule met

In: Hi, just wondering whether O=C(NCC(O)CO)[C@]1(CCS(=O)(=O)c2ccccc2)N=C(c2ccc(OCCCO)cc2)O[C@@H]1c1ccccc1 (some centres not stated) shows composite z-score of 0.2 or higher.
Out: rule met

In: Hi, just wondering whether CCOC(=O)C[C@H]1[C@H](OC(=O)c2ccc(C(=O)c3ccccc3)cc2)[C@@H](NC(=O)c2ccc3ccccc3n2)c2cc(OCCCO)ccc2N1C(=O)c1ccc2ccccc2n1 shows composite z-score of 0.2 or higher.
Out: rule not met

In: Hi, just wondering whether CCCNC(=O)[C@@]1(c2ccc([N+](=O)[O-])cc2)CC(=O)N(CC23CC4CC(CC(C4)C2)C3)[C@@H]1c1ccc(CO)cc1I shows composite z-score of 0.2 or higher.
Out: rule met

In: Hi, just wondering whether [N-]=[N+]=NCc1ccccc1C[C@]1(C(=O)N2CCOCC2)N=C(c2ccc(OCCCO)cc2)O[C@H]1c1ccccc1 shows composite z-score of 0.2 or higher.
Out: rule not met

In: Hi, just wondering whether O=C1O[C@@H](c2ccccc2)[C@@H](c2ccccc2)N2[C@@H](c3ccc(O)cc3)[C@]3(C(=O)Nc4ccc(C#CCCO)cc43)[C@@H](C(=O)N3CCCCCCC3)[C@H]12 shows composite z-score of 0.2 or higher.
Out: rule met

----------
For each of the molecules below, state its z-score.
assay: basal CRE-LacZ reporter activity in PC12 – cell-based, unstimulated, primary screen (AID 1145); conditions: no forskolin, luminescence, 4.5 h, higher = more signal, called active from +8 up or from −8 down
Active and inactive are the calls of the source.

molecule: O=C(CS)NCCCCCNC(=O)[C@H]1C[C@H]2C(=O)N[C@@H](Cc3ccccc3)C(=O)N2[C@H]1c1cccc(OCCO)c1
result: 0.696 (inactive)

molecule: O=C1OCCC/C=C\[C@H]2OC34C=CCN(CCN5CCOCC5)C(=O)[C@H]3N(CCO)C(=O)[C@@H]4C12 (stereo not given in full)
result: -0.342 (inactive)

molecule: C=CCC(OC(C)=O)[C@@H]1[C@@H](N(Cc2ccc(-c3ccccc3)cc2)C(=O)c2ccc(C)cc2)c2cc(OCCCO)ccc2N1C(=O)Cc1ccc(OC)cc1 (stereo not given in full)
result: 0.904 (inactive)

molecule: Cc1ccc(S(=O)(=O)N2CC(C(=O)O)=CCC2c2ccccc2)cc1 (stereo not given)
result: -0.266 (inactive)

molecule: COc1ccc([Si](C)(C)[C@H]2[C@H](CC(=O)N3CCC[C@H]3CO)O[C@@]3(C(=O)N(Cc4cccc(N5CCC5=O)c4)c4ccccc43)[C@@H]2C)cc1
result: 1.66 (inactive)

Required: z-score, one value per molecule below.
1. CN1C(=O)C2C=CC(C(O)c3ccccc3)N(NC(=O)OC(C)(C)C)C2C1=O (stereo not given)
2. C=C(/C(=C/C[C@@H](OC(=O)c1ccncc1)c1ccc(CO)o1)c1cc(C(=O)OC)ccc1OC)C(C)C
3. O=C1O[C@H](c2ccccc2)[C@H](c2ccccc2)N2[C@H]1[C@@H](C(=O)Nc1nc3ccccc3s1)[C@]1(C(=O)Nc3ccc(C#CC4=CCCCC4)cc31)[C@H]2c1ccc(OCCO)cc1
4. C#C[C@H](O[Si](C#CCCCCCC)(C(C)C)C(C)C)c1ccccc1
5. CC(C)N1C(=O)c2ccccc2[C@](C)(C(=O)NCCCN(C)C)[C@@H]1c1ccc(CO)cc1
6. COc1ccc([Si](C)(C)[C@@H]2[C@@H](CCO)O[C@]3(C(=O)N(Cc4ccc(N5C(=O)c6cccc7cccc5c67)cc4)c4ccccc43)[C@H]2C)cc1
7. CC1CC/C=C\[C@H]2OC34C=CCN(c5ccc6ccccc6c5)C(=O)[C@H]3N(CCCCCO)C(=O)[C@@H]4C2C(=O)O1 (stereo not given in full)

Out:
1. 0.443 (inactive)
2. 8.87 (active)
3. 0.128 (inactive)
4. 0.353 (inactive)
5. -0.0888 (inactive)
6. 4.11 (inactive)
7. 0.333 (inactive)

Required: z-score, one value per molecule below.
1. C/C=C/[C@H](CCn1cc([C@H](O)c2ccccc2)nn1)[Si](C)(C)c1ccc(OC)cc1
2. CCCCC(=O)N(Cc1ccccc1F)[C@@H]1CC(C(=O)NCCO)=C[C@H](Oc2c(I)cc(CO)cc2OC)[C@H]1O
3. O=C(CS)NCCCCCCNC(=O)[C@H]1C[C@H]2C(=O)N3CCC[C@H]3C(=O)N2[C@H]1c1ccc(O)cc1

Out:
["-0.272 (inactive)", "0.673 (inactive)", "0.675 (inactive)"]

----------
biological target: Homeobox protein Hox-A13 (Mus musculus); experiment: disruptors of Hoxa13 oligonucleotide interaction – biochemical, fluorescence polarization, labeled oligonucleotide, primary screen (AID 1185); details: Hoxa13:DNA binding, 15 min, higher = more signal, called active from +8 up or from −8 down
Param threshold (-4) applies to z-score; output Fulfilled when value >= threshold, Not fulfilled when value < threshold.

Consider the worked cases shown below.
compound: CCCC[C@@H]1C[C@H]1[C@@H](NC(=O)c1ccccc1)c1ccc(-c2ccccc2)cc1
system: Homeobox protein Hox-A13 (Mus musculus)
labelValue: Fulfilled

compound: Cc1ccc(N2C(=O)c3ccccc3[C@@H](C(=O)NCC(C)C)[C@@H]2c2ccc(CO)cc2)nc1
system: Homeobox protein Hox-A13 (Mus musculus)
labelValue: Fulfilled

compound: CC(C)(C)OC(=O)CC[C@@]1(C(=O)N2CCOCC2)N=C(c2ccc(OCCCO)cc2)O[C@@H]1c1ccccc1N=[N+]=[N-]
system: Homeobox protein Hox-A13 (Mus musculus)
labelValue: Not fulfilled

compound: COc1ccc([Si](C)(C)[C@H]2[C@H](CC(=O)N3CCC[C@H]3CO)O[C@@]3(C(=O)N(Cc4cccc(N5CCC5=O)c4)c4ccccc43)[C@@H]2C)cc1
system: Homeobox protein Hox-A13 (Mus musculus)
labelValue: Fulfilled

compound: CCOC(=O)C[C@H]1[C@H](OC(=O)c2ccccc2-c2ccccc2)[C@@H](NC(=O)c2ccc(-c3ccccc3)cc2)c2cc(OCCCO)ccc2N1C(=O)c1ccccc1
system: Homeobox protein Hox-A13 (Mus musculus)
labelValue: Fulfilled

compound: C=C(/C(=C/C[C@@H](OC(C)=O)c1ccc(CO)o1)c1cnc2ccccc2c1)C(C)C
system: Homeobox protein Hox-A13 (Mus musculus)
labelValue: Not fulfilled

compound: C=C(CCCC)C(=O)CC[C@H](OC(=O)c1ccccc1-c1ccccc1C(=O)O)c1ccc(CO)o1
system: Homeobox protein Hox-A13 (Mus musculus)
labelValue: Not fulfilled

compound: O=C1O[C@@H](c2ccccc2)[C@@H](c2ccccc2)N2[C@@H](c3ccc(O)cc3)[C@]3(C(=O)Nc4ccc(C#CCCO)cc43)[C@@H](C(=O)N3CCCCCCC3)[C@H]12
system: Homeobox protein Hox-A13 (Mus musculus)
labelValue: Fulfilled

compound: Cc1ccc(F)cc1S(=O)(=O)N[C@@H]1CCN(Cc2ccc(C(F)(F)F)cc2)C1
system: Homeobox protein Hox-A13 (Mus musculus)
labelValue: Not fulfilled

compound: C=CCC(OC(C)=O)[C@@H]1[C@@H](N(Cc2cc3ccccc3o2)C(=O)c2ccc(C)cc2)c2cc(OCCCO)ccc2N1C(=O)c1ccc(-c2ccccc2)cc1 (stereo partly specified)
system: Homeobox protein Hox-A13 (Mus musculus)
labelValue: Fulfilled

In: Hi, just wondering whether CCOC(=O)N1C(c2ccc(OCCCO)cc2)=NC(C(=O)OC)N1C(=O)OCC (stereo unspecified) shows z-score of -4 or higher.
Out: Not fulfilled

In: Hi, just wondering whether O=C1OCCC=C[C@H]2OC34C=CCN(c5ccc6ccccc6c5)C(=O)[C@H]3N(CCCCCCO)C(=O)[C@@H]4C12 (stereo partly specified) shows z-score of -4 or higher.
Out: Not fulfilled

In: Hi, just wondering whether CC(C)N1C(=O)c2ccccc2[C@](C)(C(=O)NC2CC2)[C@@H]1c1ccc(CO)cc1 shows z-score of -4 or higher.
Out: Fulfilled

In: Hi, just wondering whether C=CCN1Cc2ccccc2C[C@]2(N=C(c3ccc(OCCCO)cc3)O[C@@H]2c2ccccc2)C1=O shows z-score of -4 or higher.
Out: Fulfilled
